The reported measurements were obtained from ChEMBL document CHEMBL5661973.

Tested On: RAF proto-oncogene serine/threonine-protein kinase (Homo sapiens)
Sequence (P04049 whole entry): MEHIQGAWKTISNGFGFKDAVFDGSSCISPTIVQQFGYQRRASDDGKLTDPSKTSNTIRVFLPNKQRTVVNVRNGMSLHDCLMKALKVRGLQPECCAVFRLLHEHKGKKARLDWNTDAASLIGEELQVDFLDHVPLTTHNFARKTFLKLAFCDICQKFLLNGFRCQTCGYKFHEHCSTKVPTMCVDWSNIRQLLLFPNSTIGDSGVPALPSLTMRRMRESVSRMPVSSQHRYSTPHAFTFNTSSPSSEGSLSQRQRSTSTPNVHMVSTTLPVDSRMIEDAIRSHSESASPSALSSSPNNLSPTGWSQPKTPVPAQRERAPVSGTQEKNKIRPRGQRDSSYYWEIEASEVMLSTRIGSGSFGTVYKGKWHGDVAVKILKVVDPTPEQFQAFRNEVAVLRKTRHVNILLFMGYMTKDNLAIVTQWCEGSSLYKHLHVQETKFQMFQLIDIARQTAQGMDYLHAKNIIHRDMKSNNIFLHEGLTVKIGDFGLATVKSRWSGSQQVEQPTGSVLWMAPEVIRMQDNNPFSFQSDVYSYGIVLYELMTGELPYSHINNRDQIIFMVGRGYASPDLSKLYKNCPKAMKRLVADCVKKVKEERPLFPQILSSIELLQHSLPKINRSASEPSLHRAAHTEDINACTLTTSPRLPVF
Test: Inhibition of C-RAF (unknown origin)
Value Kind: IC50

Please give the documented IC50 of CC[C@@H]1C(=O)N(C)c2cnc(Nc3ccc(C(=O)NC4CCN(C)CC4)cc3OC)nc2N1C1CCCC1
> 10 µM

----------
Tested On: Dual specificity mitogen-activated protein kinase kinase 1 (Homo sapiens, UniProt Q02750)
Sequence (Q02750 whole entry): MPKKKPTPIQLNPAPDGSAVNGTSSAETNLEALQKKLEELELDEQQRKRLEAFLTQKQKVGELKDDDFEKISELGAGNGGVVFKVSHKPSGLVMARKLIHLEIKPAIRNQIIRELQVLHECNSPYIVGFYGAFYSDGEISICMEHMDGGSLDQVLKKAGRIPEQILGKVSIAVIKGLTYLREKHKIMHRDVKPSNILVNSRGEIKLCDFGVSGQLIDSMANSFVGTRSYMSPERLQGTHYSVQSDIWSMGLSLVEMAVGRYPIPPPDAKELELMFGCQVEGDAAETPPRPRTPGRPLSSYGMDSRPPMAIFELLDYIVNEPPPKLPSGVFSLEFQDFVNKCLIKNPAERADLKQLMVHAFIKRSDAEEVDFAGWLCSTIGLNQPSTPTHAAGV
Test: Inhibition of MKK1 (unknown origin)
pIC50: −log10 of the molar value.
Value Kind: pIC50

Give me measured pIC50, please, for this compound: CC[C@@H]1C(=O)N(C)c2cnc(Nc3ccc(C(=O)NC4CCN(C)CC4)cc3OC)nc2N1C1CCCC1
< 5.00

----------
Tested On: Phosphatidylinositol 4,5-bisphosphate 3-kinase catalytic subunit alpha isoform (Homo sapiens, UniProt P42336)
Sequence (P42336 whole entry, canonical isoform): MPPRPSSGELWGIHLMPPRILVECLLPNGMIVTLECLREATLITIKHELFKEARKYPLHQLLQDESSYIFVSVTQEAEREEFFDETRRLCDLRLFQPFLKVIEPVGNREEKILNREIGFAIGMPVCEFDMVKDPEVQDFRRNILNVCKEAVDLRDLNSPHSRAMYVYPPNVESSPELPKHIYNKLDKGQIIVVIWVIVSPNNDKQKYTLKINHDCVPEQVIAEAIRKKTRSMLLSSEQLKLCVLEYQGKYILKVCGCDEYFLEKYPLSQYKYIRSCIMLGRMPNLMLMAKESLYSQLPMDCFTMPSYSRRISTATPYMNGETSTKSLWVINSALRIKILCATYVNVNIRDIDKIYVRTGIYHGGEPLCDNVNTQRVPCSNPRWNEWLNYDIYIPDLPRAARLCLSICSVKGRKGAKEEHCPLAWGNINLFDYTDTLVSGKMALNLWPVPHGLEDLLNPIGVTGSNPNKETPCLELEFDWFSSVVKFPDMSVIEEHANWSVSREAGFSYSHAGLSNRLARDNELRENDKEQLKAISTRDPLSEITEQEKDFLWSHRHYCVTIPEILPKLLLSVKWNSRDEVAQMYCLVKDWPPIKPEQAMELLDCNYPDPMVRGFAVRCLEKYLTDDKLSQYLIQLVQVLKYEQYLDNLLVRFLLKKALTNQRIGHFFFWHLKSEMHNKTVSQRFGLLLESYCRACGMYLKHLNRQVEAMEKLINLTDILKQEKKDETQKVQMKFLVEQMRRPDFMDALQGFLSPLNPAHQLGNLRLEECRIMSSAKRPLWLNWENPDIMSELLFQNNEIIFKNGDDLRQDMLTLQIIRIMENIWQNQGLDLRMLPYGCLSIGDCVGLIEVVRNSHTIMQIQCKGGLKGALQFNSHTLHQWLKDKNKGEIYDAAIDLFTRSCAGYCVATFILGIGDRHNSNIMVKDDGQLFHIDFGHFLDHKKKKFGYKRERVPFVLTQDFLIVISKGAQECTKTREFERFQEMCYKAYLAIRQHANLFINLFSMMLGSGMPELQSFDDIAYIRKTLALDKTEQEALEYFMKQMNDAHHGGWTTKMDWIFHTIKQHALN
Test: Inhibition of PI3Ka (unknown origin)
Value Kind: IC50 (nM)
The response must be a number in nM with no trailing unit.

Please give measured IC50 of the following entry: CC[C@@H]1C(=O)N(C)c2cnc(Nc3ccc(C(=O)NC4CCN(C)CC4)cc3OC)nc2N1C1CCCC1
2410

----------
Tested On: Mitogen-activated protein kinase 11 (Homo sapiens, UniProt Q15759)
Sequence (Q15759 whole entry): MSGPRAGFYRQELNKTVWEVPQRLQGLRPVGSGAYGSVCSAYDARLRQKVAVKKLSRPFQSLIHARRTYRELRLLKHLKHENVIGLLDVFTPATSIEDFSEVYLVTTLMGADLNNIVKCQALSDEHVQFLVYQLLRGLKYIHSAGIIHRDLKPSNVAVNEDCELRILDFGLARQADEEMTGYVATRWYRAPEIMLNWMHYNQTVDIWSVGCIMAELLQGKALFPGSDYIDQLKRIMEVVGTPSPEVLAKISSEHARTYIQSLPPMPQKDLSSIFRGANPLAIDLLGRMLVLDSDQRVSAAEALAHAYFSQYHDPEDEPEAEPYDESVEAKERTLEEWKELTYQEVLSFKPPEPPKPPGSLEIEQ
Test: Inhibition of p38beta (unknown origin)
pIC50: −log10 of the molar value.
Value Kind: pIC50

Look up and state reported pIC50 for CC[C@@H]1C(=O)N(C)c2cnc(Nc3ccc(C(=O)NC4CCN(C)CC4)cc3OC)nc2N1C1CCCC1
< 5.00

----------
Tested On: UniProt:Q02763
Sequence (Q02763 whole entry): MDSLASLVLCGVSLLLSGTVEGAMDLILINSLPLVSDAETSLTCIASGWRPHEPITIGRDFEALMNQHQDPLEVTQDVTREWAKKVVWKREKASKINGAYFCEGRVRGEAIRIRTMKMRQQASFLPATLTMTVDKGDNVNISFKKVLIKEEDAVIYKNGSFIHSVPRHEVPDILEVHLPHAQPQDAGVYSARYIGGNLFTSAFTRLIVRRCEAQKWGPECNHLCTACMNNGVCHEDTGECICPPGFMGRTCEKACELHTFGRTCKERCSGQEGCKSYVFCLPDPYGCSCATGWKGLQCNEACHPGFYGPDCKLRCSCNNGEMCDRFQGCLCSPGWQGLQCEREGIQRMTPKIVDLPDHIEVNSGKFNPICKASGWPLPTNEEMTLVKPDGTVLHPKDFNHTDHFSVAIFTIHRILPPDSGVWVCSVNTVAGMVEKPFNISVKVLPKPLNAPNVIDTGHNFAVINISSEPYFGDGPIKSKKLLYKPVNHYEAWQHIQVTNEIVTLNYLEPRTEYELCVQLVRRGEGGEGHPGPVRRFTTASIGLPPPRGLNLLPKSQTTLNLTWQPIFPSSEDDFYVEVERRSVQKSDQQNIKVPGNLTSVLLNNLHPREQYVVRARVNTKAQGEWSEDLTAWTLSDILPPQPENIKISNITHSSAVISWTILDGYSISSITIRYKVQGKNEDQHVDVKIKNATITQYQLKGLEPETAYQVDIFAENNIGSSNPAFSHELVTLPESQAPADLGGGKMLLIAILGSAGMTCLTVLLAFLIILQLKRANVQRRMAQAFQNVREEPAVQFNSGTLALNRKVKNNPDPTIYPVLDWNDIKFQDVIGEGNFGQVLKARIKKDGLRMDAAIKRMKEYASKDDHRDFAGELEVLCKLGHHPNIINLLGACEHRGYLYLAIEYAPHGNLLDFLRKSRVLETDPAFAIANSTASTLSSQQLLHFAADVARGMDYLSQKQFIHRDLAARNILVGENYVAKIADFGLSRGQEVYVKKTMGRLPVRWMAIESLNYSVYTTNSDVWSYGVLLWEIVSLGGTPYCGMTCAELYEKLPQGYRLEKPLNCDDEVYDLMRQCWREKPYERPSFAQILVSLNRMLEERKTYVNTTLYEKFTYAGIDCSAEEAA
Value Kind: IC50 (µM)
Return type: number; implicit unit µM.

Report measured IC50; entry is CC[C@@H]1C(=O)N(C)c2cnc(Nc3ccc(C(=O)NC4CCN(C)CC4)cc3OC)nc2N1C1CCCC1
6.55
